# EXPERIMENTAL_SYSTEM: T1, human TREM2 on BWZ cells (human, UniProt Q9NZC2 19-230)
# T1 construct: whole, on cells; not tied to the cell line; also called BWZ Human TREM2
# T1 sequence (looked up): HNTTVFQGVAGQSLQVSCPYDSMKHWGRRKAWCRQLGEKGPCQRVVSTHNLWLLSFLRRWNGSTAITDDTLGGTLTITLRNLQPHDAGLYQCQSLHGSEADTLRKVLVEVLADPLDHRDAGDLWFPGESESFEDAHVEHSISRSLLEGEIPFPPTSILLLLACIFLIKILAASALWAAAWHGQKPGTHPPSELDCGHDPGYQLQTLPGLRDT
# ASSAY_NAME: FACS, BWZ cells
MEASURE: binding result

BINDER	VAL
T1-17 (antibody, IgG1, V domains shown, huIgG1; also called TI-17; ADI-19084) VH: QVQLQESGPGLVKPSETLSLTCTVSGGSISSYYWSWIRQPPGKGLEWIGSIYYSGSTNYNPSLKSRVTISVDTSKNQFSLKLSSVTAADTAVYYCARGAPGGRHNWFDPWGQGTLVTVSS VL: DIQMTQSPSSLSASVGDRVTITCQASQDISNYLNWYQQKPGKAPKLLIYDASNLATGVPSRFSGSGSGTDFTFTISSLQPEDIATYYCQQSDIHPRTFGGGTKVEIK	no binding
T1-73 (antibody, IgG1, V domains shown, huIgG1; also called TI-73; ADI-19149) VH: EVQLVESGGGLVQPGRSLRLSCAASGFTFDDYAMHWVRQAPGKGLEWVSGISWNSGSIGYADSVKGRFTISRDNAKNSLYLQMNSLRAEDTALYYCAKAPRMYGYFDLWGRGTSVTVSS VL: DIQMTQSPSTLSASVGDRVTITCRASQSISSWLAWYQQKPGKAPKLLIYKASSLESGVPSRFSGSGSGTEFTLTISSLQPDDFATYYCQQYRTYPTFGGGTKVEIK	no binding
T1-67 (antibody, IgG1, V domains shown, huIgG1; also called TI-67; ADI-19143) VH: QVQLVQSGAEVKKPGASVKVSCKASGYTFTSYGIHWVRQAPGQGLEWMGWISAYNGNTNYAQKLQGRVTMTTDTSTSTAYMELRSLRSDDTAVYYCARGRPSSSWGNWFDPWGQGTTVTVSS VL: EIVLTQSPGTLSLSPGERATLSCRASQSVSSSFLAWYQQKPGQAPRLLIYGASSRATGIPDRFSGSGSGTDFTLTISRLEPEDFAVYYCQQAVSLPWTFGGGTKVEIK	no binding
